This collection of values is drawn from PubChem BioAssay (NCI).

test system: SN12C renal; assay: NCI-60 one-dose screen, 48 h; conditions: 10 µM
Compounds without any hit were thinned out: in the full panel of roughly 83,000, 20% have a hit. Active and inactive are the calls of the source. The calls were made as follows: active = growth percent below 10; inactive = the rest.
Thanks in advance; please answer with one of these: t for active, f for inactive

O=[N+]([O-])c1ccc(Cl)c(S(=O)(=O)O)c1 :: f

Prompt: Per the records of this test, what outcome belongs to `COC(=O)Nc1nc2ccc(C(=O)c3cccs3)cc2[nH]1` ?
Completion: f

Prompt: How was `CCC/C=C(/C(C)=O)C(=O)OCC` classified in this test?
Completion: f

Prompt: Could you please tell me the result logged for `COCCCC/C(=N\OCCN)c1ccc(C(F)(F)F)cc1` in this assay?
Completion: f

Prompt: What did the test return for `Cc1ncc(C#N)c(N)n1` ?
Completion: f

Prompt: Lab log entry: `Nc1ccccc1C(=O)Nc1ccc(Cl)cc1Cl` — outcome as called in the assay?
Completion: f

Prompt: # fetch the recorded call for `C#CCSc1nnnn1-c1ccc(Br)c(C)c1` here
Completion: f

Prompt: Which outcome did this test record for the compound O=S(=O)(O)C(Nc1ccccc1)c1ccccc1 (configuration not stated) ?
Completion: f

Prompt: Which outcome was entered for the compound CCCCC1(CC)COC(CCC)OC1 (configuration not stated) in this test?
Completion: f

Prompt: Lab log entry: `CN(C)c1ccc2nc3ccc(=N)cc-3sc2c1` — outcome as called in the assay?
Completion: f

Prompt: Given `O=[N+]([O-])c1ccc(-c2noc(-c3cccs3)n2)cc1` , state the outcome it received in this test.
Completion: f

Prompt: # lookup: test call for `S=c1[nH]ccn1-c1ccccc1Cl`
Completion: f

Prompt: Per the assay record, what outcome was assigned to `CN(C)c1ccc2oc(=O)c3ccccc3c2c1` ?
Completion: f

Prompt: What outcome does the record of this test show for `C=CCc1cc(C(C)=O)cc(OC)c1O` ?
Completion: f

Prompt: What did this assay record as the result for CSC[C@H](NC(=O)COc1cccc2cnccc12)C(=O)NC(Cc1ccccc1)C(O)C(=O)N1CSC[C@H]1C(=O)NC(C)(C)C (some centres not stated) ?
Completion: f

Prompt: Kindly provide the recorded test outcome for the following compound: `O=[N+]([O-])c1cccc2nsnc12`
Completion: f

Prompt: For `Cc1ccc(/C(C#N)=C/c2ccc3c(c2)OCO3)cc1` , which call appears in the assay record?
Completion: f

---

System: HT29 colon
Assay: NCI-60 one-dose screen, 48 h
Settings: 10 µM
Method: Growth inhibition of the HT29 human tumor cell line is measured as a screen for anti-cancer activity. Cells are grown in 96 well plates and exposed to the test compound for 48 hours. Compounds are tested at a single concentration, which is 10^-5 M for most compounds. The reported endpoint is percent growth (GI% or GIPRCNT), where numbers from 0 - 100% represent growth inhibition, and numbers from -100% - 0 represent cell death. For example, a value of 40 represents 60% growth inhibition. […]
Compounds without any hit were thinned out: in the full panel of roughly 83,000, 20% have a hit. Calls of active or inactive are those of the source. How the source made its calls: active means growth percent below 10; inactive means the rest.
Select the correct class. Options are active, inactive and nothing else.

CC(C)NC(=O)OCc1c(COC(=O)NC(C)C)c(-c2ccc(Cl)c(Cl)c2)n2c1SCC2 :: inactive
c1ccc2c(c1)Sc1ccccc1S2 :: inactive
C=CC(O)CCC (stereo unspecified) :: inactive

Prompt: What did this assay record as the result for `NC(N)=Nc1cc2ccccc2c2ccccc12` ?
Completion: inactive

Prompt: GET /call?item= `CCCCOC(OCCCC)c1ccccc1` returns the recorded outcome of this test.
Completion: inactive

Prompt: Per the assay record, what outcome was assigned to `CC(=O)Nc1cccc(Cl)c1C` ?
Completion: inactive

Prompt: For `CCN1C(=O)/C(=C/C=C/N(C)c2ccccc2)SC1=S` , what call appears in the results of this test?
Completion: inactive

Prompt: Returns: the outcome recorded for COc1cc2c3cc1Oc1c(OC)c(OC)cc4c1C(Cc1ccc(O)c(c1)Oc1ccc(cc1)CC3N(C)CC2)N(C)CC4 (stereo unspecified) in this assay.
Completion: active

Prompt: Outcome? `O=C1Cc2cc(O)ccc2O1`
Completion: inactive

Prompt: Record lookup: outcome of this test for `O=C(O)c1cccc([N+](=O)[O-])c1` ?
Completion: inactive

Prompt: Short answer needed: outcome of this test for `CNS(=O)(=O)c1ccc(Cl)c(Cl)c1` ?
Completion: inactive

Prompt: Status in this test for `COCCCNC(=O)c1nnn2c1nc(N)c1cc(Cl)ccc12` ?
Completion: inactive

Prompt: Hi, sorry to bother you, what did the test record for `CC(=O)Cc1ccc(-c2ccccc2)cc1` ?
Completion: inactive

Prompt: Assay outcome for O=S(=O)(O)C(Nc1ccccc1)c1ccccc1 (stereo unspecified) : what was it?
Completion: inactive

Prompt: Lab log entry: `Cc1cc2nc(CC(=O)c3ccccc3)c(=O)[nH]c2cc1C` — outcome as called in the assay?
Completion: inactive

Prompt: Fill in: this test's call for `C=CCNc1ccccc1` is ___
Completion: inactive

---

tested on: UACC-257 melanoma; assay: NCI-60 one-dose screen, 48 h (100 = growth as untreated, 0 = no growth, -100 = all killed); conditions: 10 µM
This is part of a sample that, as a whole, favours compounds with a hit. Of some 83,000 tested, about 20% had one in any assay.
OBSERVABLE: growth (%)
Just the number please, in %, no unit attached.

Here are 2 compounds together with their reported answers.
CS(=O)CC1=NC(=N)N=C1CS(C)=O (stereo not given) :: 86.6
CC(=O)OCC(=O)[C@@]1(O)CC[C@H]2[C@@H]3CC[C@@H]4C[C@H](O)CC[C@]4(C)[C@H]3C(=O)C[C@@]21C :: 101

Prompt: Any idea what growth was measured for O=C(O)C(c1ccccc1)C(O)c1ccccc1 (stereo not given) ?
Completion: 85.7

Prompt: growth lookup needed for `COCCOCCCl` , thanks.
Completion: 104

Prompt: Look up growth: `S=c1[nH]ccn1-c1ccccc1Cl`
Completion: 22.9

Prompt: Value lookup for growth; key = NC(C(=O)O)C(O)c1ccco1 (stereo not given)
Completion: 102

---

growth values by entry
tested on: IGROV1 ovarian; assay: NCI-60 one-dose screen, 48 h (100 = growth as untreated, 0 = no growth, -100 = all killed); settings: 10 µM
About 83,000 compounds went through this panel and 20% of them were active in at least one assay; those are over-represented in the sample as a whole.
State the answer as a number, implicitly in %.

O=C1NC(=O)C2C(=O)NC(=O)C1C21CCc2ccccc21 (stereo not given) :: 109
CCOC(=O)C1=C(C)NC(=O)NC1c1cccs1 (stereo not given) :: 113
Cc1ccc(C)n1-c1ccsc1C(=O)NNC(=O)C(Cl)Cl :: 108
CC(=O)OCC1=CC2OC(=O)C3=COC(OC4OC(CO)C(O)C(O)C4O)C1C32 (stereo not given) :: 71.3
CCN(CC)c1ccc2nc3ccc(=[N+](CC)CC)cc-3oc2c1 :: -31.8

Prompt: Given the molecule `Oc1ccc(O)cc1` , what is its reported growth?
Completion: 108

Prompt: Need growth, item `CO[C@H]1C[C@@H]2CC[C@@H](C)[C@@](O)(O2)C(=O)C(=O)N2CCCC[C@H]2C(=O)O[C@H]([C@H](C)C[C@@H]2CC[C@@H](O)[C@H](OC)C2)CC(=O)[C@H](C)C=C(C)[C@@H](O)[C@@H](OC)C(=O)[C@H](C)C[C@H](C)/C=C/C=C/C=C1C`
Completion: 11.9

Prompt: Consider the molecule `O=C(O)c1ccnc(Br)c1` and give its measured growth.
Completion: 117

Prompt: // growth lookup, key: `O=[N+]([O-])c1ccc(N=Nc2ccccc2)cc1`
Completion: 89.8

Prompt: Reported growth for `CCOC(=O)c1[nH]c(C)c(C(=O)O)c1C` : what is it?
Completion: 108

---

The entries below are paired with their reported growth.
System: SK-MEL-28 melanoma
Assay: NCI-60 one-dose screen, 48 h (100 = growth as untreated, 0 = no growth, -100 = all killed)
Settings: 10 µM
Procedure: Growth inhibition of the SK-MEL-28 human tumor cell line is measured as a screen for anti-cancer activity. Cells are grown in 96 well plates and exposed to the test compound for 48 hours. Compounds are tested at a single concentration, which is 10^-5 M for most compounds. The reported endpoint is percent growth (GI% or GIPRCNT), where numbers from 0 - 100% represent growth inhibition, and numbers from -100% - 0 represent cell death. For example, a value of 40 represents 60% growth inhibition. […]
The panel holds about 83,000 compounds, 20% with a hit somewhere; the sample as a whole holds those more often.
Answer with a number only, understood to be in %.

// solved cases for growth follow
Cc1nc2ccccc2c(C(=O)O)c1O :: 122
COc1nc(N)nc2c1ncn2C1OC(CO)CC1O (configuration not stated) :: 108
CCCC(=O)Nc1ccc2c(c1)CN1C(=O)c3ccccc3C1=N2 :: 111
CC(=O)Oc1ccc(Br)cc1C(=O)O :: 124
COc1cccc(O)c1O :: 74.1
CCOc1ccc(/C=N/N=C(N)N)cc1OCC :: 92.4
CS(=O)CC1=NC(=N)N=C1CS(C)=O (configuration not stated) :: 108
c1ccc2c(c1)Sc1ccccc1S2 :: 110
CCCCCCCCCCCCCCCCC1CC(=O)OC1=O (configuration not stated) :: 105
CC(C)OC(=O)c1cc(NC(=S)OC(C)C)ccc1Cl :: 101

Prompt: Which growth value belongs to CCOC(=O)C(C#N)Cc1ccccc1 (configuration not stated) ?
Completion: 120

Prompt: Would you mind telling me what growth value was observed for `O=C(Nc1ccccc1C(=O)NCC1CC1)c1cccs1` ?
Completion: 110

Prompt: Look up growth for this compound: CCCC(C)OCC(=O)O (configuration not stated)
Completion: 97.9

Prompt: What does the data say about its growth? Entry: `CC(=O)Nc1cccc(Cl)c1C`
Completion: 107

Prompt: // growth lookup, key: COc1cc(C2c3cc4c(cc3C3OC(=O)C2C3CO)OCO4)cc(OC)c1OC (configuration not stated)
Completion: 49.4

Prompt: Can you share its growth? I mean this compound: `Cc1ccc(C(=O)c2ccccc2)c(C)c1`
Completion: 109

Prompt: Field request: growth | item: `O=C(NCc1ccco1)Nc1c(Cl)cc(Cl)cc1Cl`
Completion: 103

Prompt: Endpoint output: growth of C/C=C/CC(C)C(O)C1C(=O)NC(CC)C(=O)N(C)CC(=O)N(C)C(CC(C)C)C(=O)NC(C(C)C)C(=O)N(C)C(CC(C)C)C(=O)NC(C)C(=O)NC(C)C(=O)N(C)C(CC(C)C)C(=O)N(C)C(CC(C)C)C(=O)N(C)C(C(C)C)C(=O)N1C (configuration not stated) . Value?
Completion: -36.4

Prompt: Look up growth for this compound: `CCO/C=C1\SC(=S)N(c2cccc(C)c2)C1=O`
Completion: 104

Prompt: I would be grateful if you could share the reported growth for CC1(C)/C(=C\CO)C2CCC1C2 (configuration not stated) .
Completion: 115

Prompt: Please report the recorded growth for `O=[N+]([O-])c1ccc(Cl)c(S(=O)(=O)O)c1` .
Completion: 111

Prompt: What value of growth has been reported for the following compound? `C1CNC(C2=NCCN2)=N1`
Completion: 109

Prompt: Any idea what growth was measured for `O=c1cc(-c2ccccc2)oc2c1ccc1ccccc12` ?
Completion: 99.3

Prompt: Which growth is listed for `CCS(=O)(=O)c1cc(=O)[nH]c(=O)[nH]1` ?
Completion: 98.9

Prompt: Look up growth for this compound: `Cc1c(C(=O)O)c(=O)n(-c2ccccc2)n1C`
Completion: 122

Prompt: Which measured growth value corresponds to `c1ncc2[nH]cnc2n1` ?
Completion: 100

Prompt: I'd like to know its growth. The compound in question is `Oc1ccc(O)cc1`
Completion: 112
